Organism: Rattus norvegicus
Assay: Open TG-GATES - Regimen: Daily Repeat
Format: toxicity, organism-based, Sprague-Dawley
Set-up: regimen Daily Repeat, gender Male, age 6 weeks
Conditions: in vivo, po, 1000 mg/kg, […], tissue Plasma, route gavage, dose level High, time 28 day
Measure name: TBIL (mg/dL)
State the answer as a number, implicitly in mg/dL.

Some compounds with recorded TBIL:
CC(C)OC(=O)C(C)(C)Oc1ccc(C(=O)c2ccc(Cl)cc2)cc1 [FENOFIBRATE]
0.06
CCOc1ccc(NC(=O)CC(C)O)cc1 (stereo unspecified) [BUCETIN]
0.1
COc1ccc2[nH]c([S+]([O-])Cc3ncc(C)c(OC)c3C)nc2c1 (stereo unspecified) [OMEPRAZOLE]
0.1
COC1=CC(=O)C[C@@H](C)[C@]12Oc1c(Cl)c(OC)cc(OC)c1C2=O [GRISEOFULVIN]
0.1
CCOC(=O)CCC(=O)O[C@H]1[C@H](O[C@@H]2[C@@H](C)[C@H](O[C@H]3C[C@@](C)(OC)[C@@H](O)[C@H](C)O3)[C@@H](C)C(=O)O[C@H](CC)[C@@](C)(O)[C@H](O)[C@@H](C)C(=O)[C@H](C)C[C@@]2(C)O)O[C@H](C)C[C@@H]1N(C)C [ERYTHROMYCIN ETHYLSUCCINATE]
0.012

Turning now to a further record.
Form field: reported TBIL of NC(N)=Nc1nc(CSCCC(N)=NS(N)(=O)=O)cs1 [FAMOTIDINE]
0.1

###

Recorded MCHC by entry
Species: Rattus norvegicus
Assay: Open TG-GATES - Regimen: Daily Repeat
Type: toxicity, organism-based, Sprague-Dawley
Parameters: regimen Daily Repeat, gender Male, age 6 weeks
Details: in vivo, po, 0 mg/kg, […], tissue Blood, route gavage, dose level Control, time 7 day
State the answer as a number, implicitly in %.

CN1C(=O)CN=C(c2ccccc2)c2cc(Cl)ccc21
33.2

Form field: reported MCHC of CN(C)CCN(Cc1cccs1)c1ccccn1
33.6

Entry to check: NC(N)=Nc1nc(CSCCC(N)=NS(N)(=O)=O)cs1
35.8

Entry to check: COC1=CC(=O)C[C@@H](C)[C@]12Oc1c(Cl)c(OC)cc(OC)c1C2=O
33.6

Entry to check: CCOC(=O)CCC(=O)O[C@H]1[C@H](O[C@@H]2[C@@H](C)[C@H](O[C@H]3C[C@@](C)(OC)[C@@H](O)[C@H](C)O3)[C@@H](C)C(=O)O[C@H](CC)[C@@](C)(O)[C@H](O)[C@@H](C)C(=O)[C@H](C)C[C@@]2(C)O)O[C@H](C)C[C@@H]1N(C)C [ERYTHROMYCIN ETHYLSUCCINATE]
33.6

Entry to check: O=C(CCCN1CCC(O)(c2ccc(Cl)cc2)CC1)c1ccc(F)cc1
33.3

Entry to check: CC(C)OC(=O)C(C)(C)Oc1ccc(C(=O)c2ccc(Cl)cc2)cc1 [FENOFIBRATE]
32.7

###

Species: Rattus norvegicus
Assay: Open TG-GATES - Regimen: Single
Assay type: toxicity, organism-based, Sprague-Dawley
Set-up: regimen Single, gender Male, age 6 weeks
Conditions: in vivo, po, 0 mg/kg, 6 h, tissue Blood, route gavage, dose level Control
Measure name: Bas

O=C(CCCN1CCC(O)(c2ccc(Cl)cc2)CC1)c1ccc(F)cc1
0%
CCCNC(=O)NS(=O)(=O)c1ccc(Cl)cc1 [CHLORPROPAMIDE]
0.2%
C[C@@H]1C[C@H]2[C@@H]3CCC4=CC(=O)C=C[C@]4(C)[C@@]3(F)[C@@H](O)C[C@]2(C)[C@@]1(O)C(=O)CO
0%
NNC(=O)c1ccncc1
0%

Form field: reported Bas of COc1cc2c(c(OC)c1OC)-c1ccc(OC)c(=O)cc1[C@@H](NC(C)=O)CC2
0%

Entry to check: COc1ccc2[nH]c([S+]([O-])Cc3ncc(C)c(OC)c3C)nc2c1 (stereo not drawn)
0%

Entry to check: NC(N)=Nc1nc(CSCCC(N)=NS(N)(=O)=O)cs1
0%

###

Species: Rattus norvegicus
Test: Open TG-GATES - Regimen: Single
Type: toxicity, organism-based, Sprague-Dawley
Set-up: regimen Single, gender Male, age 6 weeks
Conditions: in vivo, po, 30 mg/kg, 3 h, tissue Plasma, route gavage, dose level Middle
Measure name: ALT (IU/L)
State the answer as a number, implicitly in IU/L.

CC1=C(/C=C/C(C)=C/C=C/C(C)=C/CO)C(C)(C)CCC1
48.2

Form field: reported ALT of CN(C)CCCN1c2ccccc2CCc2ccc(Cl)cc21
38.4

Entry to check: CN(C)CCN(Cc1cccs1)c1ccccn1
41.4

Entry to check: CN(C)CCCN1c2ccccc2CCc2ccccc21
43.4

###

Species on record: Rattus norvegicus
Assay: Open TG-GATES - Regimen: Single
Assay type: toxicity, organism-based, Sprague-Dawley
Design: regimen Single, gender Male, age 6 weeks
Details: in vivo, po, 10 mg/kg, 6 h, tissue Kidney, route gavage, dose level Low
Measure name: KIDNEY_L (g)
State the answer as a number, implicitly in g.

CN(C)CCCN1c2ccccc2CCc2ccccc21 [IMIPRAMINE]
0.9

Form field: reported KIDNEY_L of CC(C)OC(=O)C(C)(C)Oc1ccc(C(=O)c2ccc(Cl)cc2)cc1 [FENOFIBRATE]
0.8

Entry to check: CN(C)CCCN1c2ccccc2CCc2ccc(Cl)cc21 [CLOMIPRAMINE]
1

Entry to check: CN(C)CCN(Cc1cccs1)c1ccccn1
0.9

Entry to check: CC1=C(/C=C/C(C)=C/C=C/C(C)=C/CO)C(C)(C)CCC1 [RETINOL]
0.9

###

Species on record: Rattus norvegicus
Assay: Open TG-GATES - Regimen: Daily Repeat
Type: toxicity, organism-based, Sprague-Dawley
Design: regimen Daily Repeat, gender Male, age 6 weeks
Conditions: in vivo, po, 0 mg/kg, 72 h, tissue Plasma, route gavage, dose level Control, time 3 day
Assign TRUE to entries whose IP meets or exceeds 8 mg/dL; assign FALSE to the rest.

CN(C)CCN(Cc1cccs1)c1ccccn1
FALSE
COc1ccc2[nH]c([S+]([O-])Cc3ncc(C)c(OC)c3C)nc2c1 (configuration not stated)
FALSE
NNC(=O)c1ccncc1
FALSE
CCOC(=O)CCC(=O)O[C@H]1[C@H](O[C@@H]2[C@@H](C)[C@H](O[C@H]3C[C@@](C)(OC)[C@@H](O)[C@H](C)O3)[C@@H](C)C(=O)O[C@H](CC)[C@@](C)(O)[C@H](O)[C@@H](C)C(=O)[C@H](C)C[C@@]2(C)O)O[C@H](C)C[C@@H]1N(C)C [ERYTHROMYCIN ETHYLSUCCINATE]
FALSE
COC1=CC(=O)C[C@@H](C)[C@]12Oc1c(Cl)c(OC)cc(OC)c1C2=O
FALSE

Can O=C(CCCN1CCC(O)(c2ccc(Cl)cc2)CC1)c1ccc(F)cc1 be said to have IP at or above 8 mg/dL?
TRUE

Entry to check: NC(N)=Nc1nc(CSCCC(N)=NS(N)(=O)=O)cs1
FALSE

Entry to check: CCCNC(=O)NS(=O)(=O)c1ccc(Cl)cc1 [CHLORPROPAMIDE]
FALSE

Entry to check: CN(C)CCCN1c2ccccc2CCc2ccccc21
FALSE

Entry to check: CCOc1ccc(NC(=O)CC(C)O)cc1 (configuration not stated)
FALSE

Entry to check: CC(C)OC(=O)C(C)(C)Oc1ccc(C(=O)c2ccc(Cl)cc2)cc1 [FENOFIBRATE]
TRUE

Entry to check: CC1=C(/C=C/C(C)=C/C=C/C(C)=C/CO)C(C)(C)CCC1
FALSE

###

Species on record: Rattus norvegicus
Assay: Open TG-GATES - Regimen: Single
Type: toxicity, organism-based, Sprague-Dawley
Design: regimen Single, gender Male, age 6 weeks
Details: in vivo, po, 30 mg/kg, 3 h, tissue Plasma, route gavage, dose level Middle
Recorded LDH by entry
A complete answer gives the number followed by the unit.

CN(C)CCCN1c2ccccc2CCc2ccc(Cl)cc21
96 IU/L
CN(C)CCCN1c2ccccc2CCc2ccccc21
88.4 IU/L
CN(C)CCN(Cc1cccs1)c1ccccn1
201.8 IU/L

Turning now to a further record.
Form field: reported LDH of CC1=C(/C=C/C(C)=C/C=C/C(C)=C/CO)C(C)(C)CCC1
231 IU/L

###

Species on record: Rattus norvegicus
Assay: Open TG-GATES - Regimen: Single
Type: toxicity, organism-based, Sprague-Dawley
Design: regimen Single, gender Male, age 6 weeks
Conditions: in vivo, po, 10 mg/kg, 9 h, tissue Plasma, route gavage, dose level Low
Label Condition met when TBIL is strictly below 0.05 mg/dL; at or above that, label Condition not met.

Please review the following examples before continuing.
CC(C)OC(=O)C(C)(C)Oc1ccc(C(=O)c2ccc(Cl)cc2)cc1 [FENOFIBRATE]
Condition not met
CN(C)CCCN1c2ccccc2CCc2ccccc21
Condition not met
CN(C)CCN(Cc1cccs1)c1ccccn1
Condition met

Given CC1=C(/C=C/C(C)=C/C=C/C(C)=C/CO)C(C)(C)CCC1 , is recorded TBIL strictly lower than 0.05 mg/dL?
Condition met

Entry to check: CN(C)CCCN1c2ccccc2CCc2ccc(Cl)cc21
Condition not met
